The following molecules are listed with their measured normalized growth values.
ASSAY: chemical genetic growth profiling, strain panel (AID 1159580);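 note: tested at 20 µM; growth read once vehicle control cultures reached saturation at 30 °C; 1 = growth at the plate median or of vehicle wells; lower values mean less growth of the strain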
RUN_PARAMETERS: S. cerevisiae deletion strains, growth OD, locus YPR119W, strain clb2, active compounds read low
Screen size: about 5,500 compounds; about 2,000 (36%) were called active. Inconclusive results (about 18%) are left out. The list shows a part of the results.
READOUT: normalized growth

> print(dat)
                                   molecule  measured.result
1         COP(N)(=O)SC (stereo unspecified)             1.01
2      COC(=O)NC(=S)Nc1ccccc1NC(=S)NC(=O)OC             1.02
3  Cc1ccccc1N1C(=O)c2cc(S(N)(=O)=O)c(Cl)cc2NC1C (stereo unspecified)            0.987
4  C[C@]12CC[C@H](O)C[C@H]1CCC1C2CC[C@]2(C)[C@@H](C3=CC(=O)OC3)[C@@H](O)C[C@]12O (stereo partly specified)            0.982
5                CSc1nc(NC(C)C)nc(NC(C)C)n1             1.02
6  CCCc1nn(C)c2c(=O)[nH]c(-c3cc(S(=O)(=O)N4CCN(C)CC4)ccc3OCC)nc12            0.986

====

ASSAY: chemical genetic growth profiling, strain panel (AID 1159580)
RUN_PARAMETERS: S. cerevisiae deletion strains, growth OD, locus YDR392W, strain spt3, active compounds read low
The whole screen tested about 5,500 compounds, of which about 2,000 (36%) were called active. Roughly 18% stayed inconclusive and do not appear here. The list shows a part of the results.

MOLECULE	normalized growth
O=C(O)c1ccccc1O	1.02
Oc1ccc([C@H]2Oc3cc(O)cc(O)c3C[C@H]2O)cc1	0.929
C[C@H]1O[C@@H](O[C@H]2[C@@H](O)C[C@H](O[C@H]3[C@@H](O)C[C@H](O[C@H]4CC[C@]5(C)C6C[C@@H](O)[C@]7(C)[C@@H](C8=CC(=O)OC8)CC[C@]7(O)C6CC[C@@H]5C4)O[C@@H]3C)O[C@@H]2C)C[C@H](O)[C@@H]1O (stereo partly drawn)	0.975

====

ASSAY: chemical genetic growth profiling, strain panel (AID 1159580);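 note: tested at 20 µM; growth read once vehicle control cultures reached saturation at 30 °C; 1 = growth at the plate median or of vehicle wells; lower values mean less growth of the strain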
RUN_PARAMETERS: S. cerevisiae deletion strains, growth OD, locus YLL001W, strain dnm1
About 2,000 (36%) of roughly 5,500 compounds were called active. Another 18% or so got no clear call; they are omitted. Cut-off read from the data, not from the text of the source: active = normalized growth mostly below about 0.91 (no sharp cut-off); inconclusive = no clear call, values can overlap the other calls; inactive = mostly above about 0.92. Some of the results follow.
Outcomes: 1 for active, 0 for inactive

> print(dat)
                                   compound  cat
1            NC(=O)c1ccc([N+](=O)[O-])cc1Cl    0
2  NS(=O)(=O)c1cc2c(cc1C(F)(F)F)NC(Cc1ccccc1)NS2(=O)=O (stereo not drawn)    0
3  OC1(c2ccc(Cl)c(C(F)(F)F)c2)CCN(CCCC(c2ccc(F)cc2)c2ccc(F)cc2)CC1    1

====

ASSAY: chemical genetic growth profiling, strain panel (AID 1159580);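 note: tested at 20 µM; growth read once vehicle control cultures reached saturation at 30 °C; 1 = growth at the plate median or of vehicle wells; lower values mean less growth of the strain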
RUN_PARAMETERS: S. cerevisiae deletion strains, growth OD, locus YOR184W, strain ser1, active compounds read low
Screen size: about 5,500 compounds; about 2,000 (36%) were called active. About 18% were inconclusive and are not listed. The list shows a part of the results.
Here the recorded normalized growth is given for each entry.
READOUT: normalized growth

> print(dat)
                                    molecule  measured.result
 1  CC(=O)OCC(=O)[C@@]1(O)CCC2C3C[C@H](C)C4=CC(=O)C=CC4(C)C3[C@@H](O)CC21C (some centres undefined)             1.01
 2  COC1=CC(C)[C@@H]2C[C@H]3OC(=O)C[C@H]4C(C)=C(OC)C(=O)C([C@@]34C)[C@@]2(C)C1=O (some centres undefined)             1.02
 3        CN(C)CC[C@H](c1ccc(Cl)cc1)c1ccccn1             1.02
 4  NC(=O)c1cc([N+](=O)[O-])cc([N+](=O)[O-])c1            0.976
 5  Cc1ccccc1N1C(=O)c2cc(S(N)(=O)=O)c(Cl)cc2NC1C (centres undefined)             1.01
 6  CN(C)C(=O)C(CCN1CCC(O)(c2ccc(Cl)cc2)CC1)(c1ccccc1)c1ccccc1             1.02
 7  C[C@@H]1CCC2[C@](C)(CO)[C@@H](O)CC[C@]2(C)[C@@]12CC[C@@](CO)(CCO)O2 (some centres undefined)             1.02
 8  CC1=C2C(O)C(=O)OC3CC4C(C)(C)C(=O)C=C[C@]4(C)C(CC1)[C@]23C (some centres undefined)             1.01
 9  CC1(C)S[C@@H]2[C@H](NC(=O)C(C(=O)O)c3ccccc3)C(=O)N2[C@H]1C(=O)O (some centres undefined)            0.978
10  CSCCC(N)C(=O)NC(CC(C)C)C(=O)NC(Cc1ccccc1)C(=O)O (centres undefined)            0.989
11  CC(C)=CC1C(CO)C1(C)C (centres undefined)             1.01
12  CC[C@@]1(O)C(=O)OCc2c1cc1n(c2=O)Cc2cc3cc(O)ccc3nc2-1            0.972
13    COc1ccc(-c2cc(=O)c3c(O)cc(O)cc3o2)cc1O            0.982
14  COC(=O)[C@H]1[C@H]2C[C@H]3c4[nH]c5cc(OC)ccc5c4CCN3C[C@H]2C[C@@H](OC(=O)c2cc(OC)c(OC)c(OC)c2)[C@@H]1OC             1.01

====

# normalized growth annotations
ASSAY: chemical genetic growth profiling, strain panel (AID 1159580);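 note: tested at 20 µM; growth read once vehicle control cultures reached saturation at 30 °C; 1 = growth at the plate median or of vehicle wells; lower values mean less growth of the strain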
RUN_PARAMETERS: S. cerevisiae deletion strains, growth OD, locus YNL153C, strain GIM3, active compounds read low
Out of some 5,500 compounds screened, about 2,000 (36%) were called active. Roughly 18% stayed inconclusive and do not appear here. The list shows a part of the results.
READOUT: normalized growth

> print(dat)
                                    compound            readout  measured.result
 1  COc1c(O)cc2c(c1O)[C@H]1O[C@H](CO)[C@@H](O)[C@H](O)[C@@H]1OC2=O  normalized growth            0.999
 2  O=C(Nc1ccccc1)N1CCN(C(c2ccccc2)c2ccccc2)CC1  normalized growth            0.994
 3                  COc1cc(C(=O)O)cc(OC)c1OC  normalized growth             1.01
 4  COc1ccc(-c2cc(=O)c3c(O)cc(O)c(-c4cc(-c5cc(=O)c6c(O)cc(O)cc6o5)ccc4OC)c3o2)cc1  normalized growth             0.98
 5  Cc1onc(-c2ccccc2)c1C(=O)On1c(-c2ccccc2)nc2ccccc2c1=O  normalized growth                1
 6  Cn1c(SCC(=O)N2CCOCC2)nnc1-c1ccc2ncccc2c1  normalized growth                1
 7  COC(=O)C(N)Cc1ccc(Cl)cc1 (configuration not stated)  normalized growth             1.01
 8  CNCCC(Oc1ccccc1C)c1ccccc1 (configuration not stated)  normalized growth            0.984
 9  NC(=NS(=O)(=O)c1cc(Cl)c(Oc2ccc([N+](=O)[O-])cc2Cl)c(Cl)c1)c1cccnc1  normalized growth            0.992
10           COc1cc(C(=O)N2CCOCC2)cc(OC)c1OC  normalized growth            0.997
11        NC(=S)CS(=O)(=O)c1ccc(C(F)(F)F)cc1  normalized growth             1.02
12                         N#Cc1c(Cl)cccc1Cl  normalized growth             1.01
13  CC[C@H]1CN2CCC1C[C@@H]2[C@@H](O)c1ccnc2ccc(OC)cc12 (some centres not stated)  normalized growth                1
14                    CNC[C@H](O)c1cccc(O)c1  normalized growth             1.01
15       Cn1c(SCc2ccccc2)nnc1-c1ccc2ncccc2c1  normalized growth            0.997
16  O=[N+]([O-])c1ccc(Oc2c(Cl)cccc2Cl)c(Cl)c1Oc1c(Cl)cccc1Cl  normalized growth            0.986
17  CCOC(=O)C1C(=O)C=C(c2cccs2)CC1c1ccc(OC)c(OC)c1Cl (configuration not stated)  normalized growth            0.988
